The reported measurements were obtained from the supplement of paper PMC10567573.

Listing of entries alongside the reported protein stability index.
B1: MFF (parent)
chain: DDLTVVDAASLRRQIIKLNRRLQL

Variants of: B1
Assay: protein stability index of a GFP-peptide fusion (GPS, HEK-293T) (PSI 1-6); higher = more stable;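 also: lentivirally expressed fusions sorted by FACS into six bins by GFP to DsRed ratio, PSI derived from sequencing read proportions per bin multiplied by bin number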
Settings: c terminus: a fixed tail appended
Would you mind answering with just the numeric figure?

Example variants with recorded protein stability index:
[
  {
    "Variant Designation": "L11V",
    "protein stability index": 3.05
  },
  {
    "Variant Designation": "R21W",
    "protein stability index": 1.91
  },
  {
    "Variant Designation": "L3P",
    "protein stability index": 2.48
  }
]

Recorded result, D1G , protein stability index: 2.17

Sample A8W ; protein stability index observed: 2.17

Looking up Q23K , I see its protein stability index listed as 2.38

Query L18C yields protein stability index of 1.62

Quick note, protein stability index for Q14I landed at 2.3

Notebook: L3E , protein stability index read as 2.56

D1C yielded protein stability index of 2.04

Noted for L3V : its protein stability index reads 2.8

According to the records, this variant K17W displays protein stability index of 1.74
